Let's look at some compounds and their measured IC50.
- Tested on: Clostridium difficile clinical isolate growth, OD600, 24 h
- experiment: growth modulation of Clostridium difficile isolate – OD600, 9-point, retest, dose response (AID 1224920);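 also: inhibitors lower culture turbidity so OD600 falls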

>>> df
                                   compound  meas_value
0  C(=C\c1ccc(C2[C@@H]3CN(Cc4cocn4)C[C@H]2N3)cc1)/c1ccccc1 (some centres undefined)       11 µM
1  COc1ccccc1CN1C[C@@H]2N[C@H](C1)C2c1ccc(-c2ccccc2)cc1 (some centres undefined)     13.3 µM
2  COc1ccc(C#Cc2ccc([C@@H]3[C@H](CO)N4CCCCN(C(=O)Nc5cccc(F)c5)C[C@@H]34)cc2)cc1     7.68 µM

Measured IC50, COc1cccc(-c2ccc(C3[C@@H]4CN(C(=O)c5ccc(F)cc5)C[C@H]3N4)cc2)c1 (some centres undefined) : 65.4 µM

Measured IC50, COc1cc(CN2[C@@H]3CNC[C@H]2C3c2ccc(/C=C/c3ccccc3)cc2)cc(OC)c1 (some centres undefined) : 12.2 µM

Measured IC50, Cc1ccc(-c2ccc(C3[C@H]4CNC[C@@H]3N4C(=O)Nc3ccc(F)cc3)cc2)cc1 (some centres undefined) : 64.4 µM

Measured IC50, CC(C)CC#Cc1ccc([C@@H]2[C@@H](CO)N3CCCCN(C(=O)Nc4ccccc4)C[C@H]23)cc1 : 10.9 µM

Measured IC50, COc1ccccc1NC(=O)N1CCCCN2[C@H](CO)[C@H](c3ccc(-c4cccc(C)c4)cc3)[C@H]2C1 : 10.3 µM

Measured IC50, Cc1ccccc1-c1ccc(C2[C@@H]3CN(S(=O)(=O)Cc4ccccc4)C[C@H]2N3)cc1 (some centres undefined) : 33.8 µM

---

Let's look at some compounds and their measured IC50.
- Tested on: Clostridium difficile clinical isolate growth, OD600, 24 h
- experiment: growth modulation of Clostridium difficile isolate – OD600, 9-point, retest, dose response (AID 1224920);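 also: inhibitors lower culture turbidity so OD600 falls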

Here is how some compounds turned out for IC50.
>>> df
                            compound_smiles                           target_of_assay  meas_value
0  N#Cc1ccc(-c2ccc3c(c2)[C@@H]2[C@@H](CCN2Cc2ccc4c(c2)OCO4)[C@@H](CO)N3)cc1  Clostridium difficile clinical isolate growth, OD600, 24 h     32.3 µM
1  COc1ccccc1C#Cc1ccc2c(c1)[C@H]1[C@H](CCN1C(=O)c1ccc(F)cc1)[C@H](CO)N2  Clostridium difficile clinical isolate growth, OD600, 24 h    0.759 µM
2  O=C(NC[C@H]1N[C@H](CO)[C@@H]1c1ccc(C2=CCCCC2)cc1)c1cccc(F)c1  Clostridium difficile clinical isolate growth, OD600, 24 h     58.8 µM

Then there is this compound:
Measured IC50, Cc1ccccc1-c1ccc([C@H]2[C@@H](CO)N3CCCCN(C(=O)Nc4ccc(F)cc4)C[C@H]23)cc1 : 27.4 µM

---

Let's look at some molecules and their measured activity change, negative = inhibition.
- experiment: growth modulation of Clostridium difficile isolate – OD600, 9-point, retest, dose response (AID 1224920);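 also: inhibitors lower culture turbidity so OD600 falls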;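 as to activity change, negative = inhibition: plate controls were DMSO for no effect and levofloxacin control for full effect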
- experimental.setup: Clostridium difficile clinical isolate growth, OD600, 24 h; at 68 µM (top of the series)
Kindly provide the numeric value in % only, without the unit symbol.

In [3]: df
Out[3]:
                                   molecule                       recorded_endpoint  unit_abbreviation  meas_value
0  O=C(Cc1ccccc1)N1CC[C@@H]2[C@H](CO)Nc3ccc(C4=CCCCC4)cc3[C@@H]21  activity change, negative = inhibition                  %        29.4

Measured activity change, negative = inhibition, N#Cc1cccc(-c2ccc(C3[C@H]4CNC[C@@H]3N4C(=O)Nc3ccc(F)cc3)cc2)c1 (stereo partly specified) : 21.6

Measured activity change, negative = inhibition, O=C(c1ccc2c(c1)OCO2)N1C[C@@H]2N[C@H](C1)C2c1ccc(-c2ccccc2F)cc1 (stereo partly specified) : 31.1

Measured activity change, negative = inhibition, C/C=C/c1ccc(C2[C@@H]3CN(C(=O)Nc4ccc(F)cc4)C[C@H]2N3)cc1 (stereo partly specified) : 49.5

Measured activity change, negative = inhibition, COc1ccccc1-c1ccc(C2[C@@H]3CN(Cc4nccs4)C[C@H]2N3)cc1 (stereo partly specified) : 37.9

Measured activity change, negative = inhibition, COc1ccc(-c2ccccc2[C@@H]2[C@@H](C#N)N(C(=O)NC3CCCC3)[C@H]2CO)cc1 : -5
